- Test system: K562;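 further: after 48 h exposure read by CellTiter-Glo luminescence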
- assayOverview: cell viability relative to vehicle control; higher = less cytotoxic
- conditions: 10 µM; SRSF2 genotype: SRSF2 wt/wt
Entries annotated with measured cell viability

These recorded examples may help you get a feel for the data.
| compound | cell viability |
| --- | --- |
| CC(=O)Nc1nc(-c2cccc(NS(=O)(=O)c3cccc4c(N(C)C)cccc34)c2)cs1 | 62% |
| Cc1cc(C(N)=O)ccc1-n1c(CCC(=O)O)ccc1-c1ccc(-n2ccnc2)cc1 | 108% |
| COc1ccc(CCc2nc3cc(-c4c(C)noc4C)ccc3n2C[C@H](C)N2CCOCC2)cc1Cl | 73.8% |
| CCCC(CCC)C(=O)O [Divalproex sodium] | 103% |
| C#CC1(O)CC[C@H]2[C@@H]3CCC4=CC(=O)CC[C@@H]4[C@H]3CC[C@@]21CC (stereo not given in full) | 97.1% |
| Cc1ccc(-n2sc(=O)n(Cc3ccc(F)cc3)c2=O)cc1 | 78% |
| CC1CCC2(C(=O)OC3OC(CO)C(O)C(O)C3O)CCC3(C)C(=CCC4C5(C)CCC(OC6OCC(O)C(O)C6O)C(C)(C)C5CCC43C)C2C1(C)O (stereo not given) [Ziyu-glycoside I] | 99.4% |
| Cc1cc(O)cc(O)c1 | 104% |

Report measured cell viability; entry is CCCCC(CC)COC(=O)C=Cc1ccc(OC)cc1 (stereo not given) [Octinoxate]
103%

Report measured cell viability; entry is `CN(C)CCCn1cc(C2=C(c3c[nH]c4ccccc34)C(=O)NC2=O)c2ccccc21`
98.8%

Report measured cell viability; entry is `Cc1[nH]c2ccccc2c1CCNCc1ccc(/C=C/C(=O)NO)cc1`
2.36%

Report measured cell viability; entry is `N#Cc1ccc([C@H]2CCc3cncn32)c(F)c1`
88.2%
